Taken from PubChem BioAssay.

test-summary: inhibitors of TNFa-induced NFkB p65 translocation, primary screen, imaging, HUVEC, MLSMR starter and 10KST1 sets (AID 438);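 further: compound added about 3h40 before a 20 min TNFalpha stimulation; signal is the nuclear over cytoplasmic p65 intensity ratio per well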
experimental-parameters: HUVEC TNFa-induced p65 nuclear translocation; at 2 µM, active compounds read high, 0% TNFa-plus-vehicle, 100% no-TNFa wells
Overview of reported inhibition across a group of compounds:
Report only the number, with the unit % understood.

Cc1nc2sc(C(c3cccc(F)c3)N3CCN(C(=O)c4ccco4)CC3)c(O)n2n1 (centres undefined) ... -2.8
COc1ccccc1NC(=O)c1ccc(NC(=O)CSc2nnnn2C)cc1 ... -3.2
CCn1cc(/C=C(/C#N)S(=O)(=O)c2ccccc2)cn1 ... -10.9

*Q* Give recorded inhibition. O=C(NC1CC2CCC1C2)c1ccc(CN2CCOCC2)cc1 (centres undefined)
*A* 6.1

*Q* Give recorded inhibition. `COc1ccc(S(=O)(=O)n2ccnc2)c2cccnc12`
*A* -21.1

*Q* Give recorded inhibition. `O=C(CSc1nnc2scc(-c3ccccc3)n12)N1CCN(Cc2ccccc2)CC1`
*A* -24.5

*Q* Give recorded inhibition. Cc1nc(C)c(C(=O)C2=C(O)C(=O)N(CCN3CCOCC3)C2c2cccnc2)s1 (centres undefined)
*A* -0.4

*Q* Give recorded inhibition. `Cc1cc(NC(=O)Cn2cnc3c2c(=O)n(C)c(=O)n3C)n(-c2ccccc2)n1`
*A* -38.9

*Q* Give recorded inhibition. `O=C(OCc1nnc(-c2ccccc2)o1)C1=COCCO1`
*A* 0

*Q* Give recorded inhibition. OCCN1CCN(CC(O)COc2ccc3ccccc3c2)CC1 (centres undefined)
*A* -10.8

*Q* Give recorded inhibition. `O=C(Nc1ccc(N2CCOCC2)c(F)c1)c1ccncc1`
*A* -3.2

*Q* Give recorded inhibition. `CC1(C)Cc2noc(N)c2C(C)(C)N1O`
*A* -11.6

*Q* Give recorded inhibition. `CS(=O)(=O)c1ncc(Cl)c(C(=O)Nc2ccc(N3CCOCC3)cc2)n1`
*A* -2.1

*Q* Give recorded inhibition. `CC1CCN(C(=O)C2CCN(S(=O)(=O)c3cnc[nH]3)CC2)CC1`
*A* 2.5

* * *

test-summary: endothelial E-selectin expression blockers – imaging, HUVEC, immunofluorescence, MLSMR starter and 10KST1 sets, primary screen (AID 487);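 further: signal is fraction of cell area covered by stained E-selectin grains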
experimental-parameters: HUVEC TNFalpha-induced E-selectin immunofluorescence imaging, at 2 µM; active compounds read high
quantity-kind: inhibition (%)
Report only the number, with the unit % understood.

COCCNC(=O)C(C)OC(=O)c1nsc(Cl)c1Cl (centres undefined) ... -45.1
CN1C(=O)NC(NC(=O)C2CCCCC2)(C(F)(F)F)C1=O (centres undefined) ... 3.3
CN(C)/C=C1\N=C(c2cccs2)OC1=O ... -85.3

*Q* Give recorded inhibition. `O=C(CCCn1c(=O)c2sccc2n(Cc2ccc(F)cc2)c1=O)NCc1ccco1`
*A* -40.1

*Q* Give recorded inhibition. O=C1CC(c2cccc(Cl)c2)CC(O)=C1C=NCCCO (centres undefined)
*A* 28.3

*Q* Give recorded inhibition. `COc1ccccc1N1CCN(C(=O)c2ccc(CS(=O)(=O)c3ccccc3OC)o2)CC1`
*A* -68.7

*Q* Give recorded inhibition. C/C(CC(O)(/C=N/O)c1ccccc1)=N\O (centres undefined)
*A* -60.1

*Q* Give recorded inhibition. `Nc1nc(C2C(=O)CCCC2=O)cs1`
*A* -93.1

*Q* Give recorded inhibition. `Cc1cn([C@H]2C=C[C@@H](CO)O2)c(=O)[nH]c1=O`
*A* -114

*Q* Give recorded inhibition. `COc1ccccc1S(=O)(=O)n1cc(Cc2ccccc2)c(N)n1`
*A* -28.1

*Q* Give recorded inhibition. `COc1ccc(Cl)cc1C(=O)n1nc(C)cc1C`
*A* -31

*Q* Give recorded inhibition. O=C(NC12CC3CC(CC(C3)C1)C2)C1CCCN1C(=O)NC1CCCCC1 (centres undefined)
*A* -17.6
